Cited source: patent US9127016B2

Molecular target: PTP1B (Homo sapiens, UniProt P18031)
Sequence (P18031 1-435): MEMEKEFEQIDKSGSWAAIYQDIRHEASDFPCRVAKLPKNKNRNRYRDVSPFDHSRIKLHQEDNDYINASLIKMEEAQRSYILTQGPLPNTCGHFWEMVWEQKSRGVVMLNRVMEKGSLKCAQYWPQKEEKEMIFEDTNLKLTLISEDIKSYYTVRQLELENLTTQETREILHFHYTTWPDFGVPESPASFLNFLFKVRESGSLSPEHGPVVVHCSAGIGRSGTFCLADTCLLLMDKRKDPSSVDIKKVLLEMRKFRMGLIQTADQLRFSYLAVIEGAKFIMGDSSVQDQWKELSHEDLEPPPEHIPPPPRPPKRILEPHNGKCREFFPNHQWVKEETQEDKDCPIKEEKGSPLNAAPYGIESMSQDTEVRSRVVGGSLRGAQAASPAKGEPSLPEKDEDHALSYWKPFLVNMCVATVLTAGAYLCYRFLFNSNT
readoutKind: IC50

* O=C1/C(=C/c2ccccc2)C(NC2CCCCC2)c2ccccc21 (stereo not shown) | > 300 µM

====

Target: Dusp3/VHR (Homo sapiens, UniProt P51452)
Sequence (P51452 whole entry): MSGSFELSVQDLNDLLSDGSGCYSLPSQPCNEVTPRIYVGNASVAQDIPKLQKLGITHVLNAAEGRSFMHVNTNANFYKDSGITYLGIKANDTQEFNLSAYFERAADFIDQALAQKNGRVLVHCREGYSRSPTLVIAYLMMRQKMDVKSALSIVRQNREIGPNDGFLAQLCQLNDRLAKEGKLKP
Assay: OMFP phosphatase assay, Dusp3/VHR
Conditions: n=3, OMFP substrate, 15.2 nM-300 μM; read-out: mean in vitro values, VHR
Procedure: Enzyme activities in the presence or absence of BCI were measured using the artificial substrate […] at concentrations equal to the Km of each enzyme (Cdc25B, PTP1B & Dusp3/VHR) and at optimal pH for individual enzyme activity in a 96-well microtiter plate assay based on previously described methods by Lazo et al. (J Med Chem 44, 4042-9 (2001) and Lazo, J. S. et al. Bioorg Med Chem 14, 5643-50 (2006)). […]
pIC50: −log10 of the molar value.
readoutKind: pIC50

* O=C1/C(=C/c2ccccc2)C(NC2CCCCC2)c2ccccc21 (stereo not shown) | < 3.52

====

Biological target: Cdc25B (Homo sapiens, UniProt P30305)
Sequence (P30305 whole entry): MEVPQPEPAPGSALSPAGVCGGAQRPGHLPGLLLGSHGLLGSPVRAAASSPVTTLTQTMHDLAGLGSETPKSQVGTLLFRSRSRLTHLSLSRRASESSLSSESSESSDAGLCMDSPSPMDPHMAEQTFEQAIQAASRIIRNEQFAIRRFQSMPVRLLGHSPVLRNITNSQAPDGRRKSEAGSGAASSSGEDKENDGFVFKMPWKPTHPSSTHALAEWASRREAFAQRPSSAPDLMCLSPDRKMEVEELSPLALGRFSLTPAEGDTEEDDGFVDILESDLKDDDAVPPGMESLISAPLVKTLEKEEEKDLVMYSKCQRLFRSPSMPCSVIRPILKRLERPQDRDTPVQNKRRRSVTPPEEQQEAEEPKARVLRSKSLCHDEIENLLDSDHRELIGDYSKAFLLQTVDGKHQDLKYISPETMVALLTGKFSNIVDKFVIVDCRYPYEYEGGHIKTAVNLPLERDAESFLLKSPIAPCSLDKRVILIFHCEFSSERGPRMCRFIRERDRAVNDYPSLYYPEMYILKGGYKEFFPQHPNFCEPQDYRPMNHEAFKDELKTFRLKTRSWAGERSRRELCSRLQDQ
readoutKind: IC50

* O=C1/C(=C/c2ccccc2)C(NC2CCCCC2)c2ccccc21 (stereo not shown) | > 300 µM

====

Target: human Dusp1 (Homo sapiens, UniProt P28562)
Sequence (P28562 whole entry): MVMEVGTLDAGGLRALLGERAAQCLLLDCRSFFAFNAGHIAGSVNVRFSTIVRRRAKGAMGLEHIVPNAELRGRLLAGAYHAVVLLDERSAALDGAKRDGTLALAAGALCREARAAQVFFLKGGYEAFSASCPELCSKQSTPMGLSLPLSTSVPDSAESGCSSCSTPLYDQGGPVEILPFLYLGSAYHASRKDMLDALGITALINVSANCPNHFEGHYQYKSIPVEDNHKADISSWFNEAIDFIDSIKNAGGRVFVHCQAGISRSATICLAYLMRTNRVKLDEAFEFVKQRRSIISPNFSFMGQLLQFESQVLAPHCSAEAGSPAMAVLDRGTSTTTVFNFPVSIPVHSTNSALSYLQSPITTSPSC
Assay: Chemical complementation assay in HeLa cells, pERK restoration, Dusp1-Myc
Conditions: TPA stimulated, 15 min compound, read-out: IC50, Dusp1 inhibition (pERK restoration)
readoutKind: IC50

* O=C1/C(=C/c2ccccc2)C(NC2CCCCC2)c2ccccc21 (stereo not shown) [Compound 3] | 11.2 µM
